The entries below are paired with their reported ΔTm at 10 µM.
- TESTED SYSTEM: ABL1 (Homo sapiens)
- Construct: purchased in-house thermal shift (DSF) kinase panel (SGC Frankfurt); Promega NanoBRET for AURKA/B/C
- Sequence (P00519 229-512): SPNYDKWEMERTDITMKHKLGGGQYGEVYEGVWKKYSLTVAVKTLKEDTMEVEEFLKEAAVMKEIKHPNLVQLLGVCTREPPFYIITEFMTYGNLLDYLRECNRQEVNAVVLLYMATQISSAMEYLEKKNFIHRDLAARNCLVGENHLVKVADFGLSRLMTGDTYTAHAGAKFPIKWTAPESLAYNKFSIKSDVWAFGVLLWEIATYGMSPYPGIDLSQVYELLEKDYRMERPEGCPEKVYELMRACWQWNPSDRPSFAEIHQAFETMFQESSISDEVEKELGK
- ASSAY COMMENT: Thermal shift assay
- Type: binding
- TEST CONTEXT: compound 10 µM; n = 3; read-out: ΔTm ABL1
State the answer as a number, implicitly in °C.

Recorded ΔTm at 10 µM, per entry:
LINE NOTATION | ΔTm at 10 µM, °C
NC(=O)Cc1ccc(Nc2ncc(F)c(Nc3ccc(C(=O)Nc4ccccc4Cl)cc3)n2)cc1 | 1.7
CCN1CCN(C(=O)Cc2ccc(Nc3ncc(F)c(Nc4ccc(C(=O)Nc5ccccc5)cc4)n3)cc2)CC1 | 3.6
O=C(Cc1ccc(Nc2ncc(F)c(Nc3ccc(C(=O)Nc4ccccc4Cl)cc3)n2)cc1)NCCN1CCOCC1 | 1.1

Here is another molecule to look at.
[in] Sample CCN1CCN(C(=O)Cc2ccc(Nc3ncc(F)c(Nc4ccc(C(=O)O)cc4)n3)cc2)CC1 — what was its ΔTm at 10 µM?
[out] 2.6

###

- TESTED SYSTEM: MAP2K6 (Homo sapiens, UniProt P52564)
- Construct: purchased in-house thermal shift (DSF) kinase panel (SGC Frankfurt); Promega NanoBRET for AURKA/B/C
- Sequence (P52564 47-334): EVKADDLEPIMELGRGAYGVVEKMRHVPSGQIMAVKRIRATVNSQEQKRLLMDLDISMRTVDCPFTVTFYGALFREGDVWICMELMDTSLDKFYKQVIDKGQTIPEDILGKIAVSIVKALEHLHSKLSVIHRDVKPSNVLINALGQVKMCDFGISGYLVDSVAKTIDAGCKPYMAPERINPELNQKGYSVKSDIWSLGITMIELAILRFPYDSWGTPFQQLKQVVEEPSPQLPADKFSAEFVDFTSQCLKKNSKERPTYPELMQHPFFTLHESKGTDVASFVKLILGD
- ASSAY COMMENT: Thermal shift assay
- Assay type: binding
- TEST CONTEXT: compound 10 µM; n = 3; read-out: ΔTm MAP2K6
The entries below are paired with their reported ΔTm at 10 µM.
State the answer as a number, implicitly in °C.

Recorded ΔTm at 10 µM, per entry:
COMPOUND | ΔTm at 10 µM (°C)
O=C(Cc1ccc(Nc2ncc(F)c(Nc3ccc(C(=O)Nc4ccccc4Cl)cc3)n2)cc1)NCCN1CCOCC1 [ERJ2-04] | 0.4
CCN1CCN(C(=O)Cc2ccc(Nc3ncc(F)c(Nc4ccc(C(=O)O)cc4)n3)cc2)CC1 [ERJ2-12] | 0.8
NC(=O)Cc1ccc(Nc2ncc(F)c(Nc3ccc(C(=O)Nc4ccccc4Cl)cc3)n2)cc1 [ERJ2-06] | 0.8

[in] Request - read-out ΔTm at 10 µM | tested on MAP2K6 (Homo sapiens, UniProt P52564) | compound CCN1CCN(C(=O)Cc2ccc(Nc3ncc(F)c(Nc4ccc(C(=O)Nc5ccccc5)cc4)n3)cc2)CC1 [ERJ2-11]
[out] 0.7

###

- TESTED SYSTEM: AURKB (Homo sapiens, UniProt Q96GD4)
- Sequence (Q96GD4 whole entry): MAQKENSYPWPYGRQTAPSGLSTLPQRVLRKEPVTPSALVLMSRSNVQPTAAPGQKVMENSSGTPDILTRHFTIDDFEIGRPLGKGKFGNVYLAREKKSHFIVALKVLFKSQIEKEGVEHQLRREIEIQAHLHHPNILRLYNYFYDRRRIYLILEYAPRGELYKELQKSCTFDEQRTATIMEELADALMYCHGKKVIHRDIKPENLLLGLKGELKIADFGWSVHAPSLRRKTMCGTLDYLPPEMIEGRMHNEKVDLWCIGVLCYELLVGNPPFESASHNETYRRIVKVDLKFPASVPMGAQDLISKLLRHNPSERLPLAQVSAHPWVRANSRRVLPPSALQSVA
- ASSAY COMMENT: NanoBRET assay in HEK293T cells
- Format: cell-based
- Design: full-length wild-type AURKA, AURKB, and AURKC were obtained as plasmids cloned in frame with a C-terminal NanoLuc-fusion; host or cells: HEK293T
- TEST CONTEXT: NanoBRET; n = 2, mean; Figure 6B; read-out: affinity to intracellular AURKB
READOUT: IC50 (µM)
State the answer as a number, implicitly in µM.

Recorded IC50, per entry:
LINE NOTATION | READOUT | OBS VALUE
COCCNC(=O)Cc1ccc(Nc2ncc(F)c(Nc3ccc(C(=O)Nc4ccccc4Cl)cc3)n2)cc1 | IC50 | 16.8
CCN1CCN(C(=O)Cc2ccc(Nc3ncc(F)c(Nc4ccc(C(=O)Nc5ccccc5)cc4)n3)cc2)CC1 | IC50 | 43

[in] Sample NC(=O)Cc1ccc(Nc2ncc(F)c(Nc3ccc(C(=O)Nc4ccccc4Cl)cc3)n2)cc1 — what was its IC50?
[out] 13.6

###

- TESTED SYSTEM: EPHA2 (Homo sapiens)
- Construct: purchased in-house thermal shift (DSF) kinase panel (SGC Frankfurt); Promega NanoBRET for AURKA/B/C
- Sequence (P29317 596-900): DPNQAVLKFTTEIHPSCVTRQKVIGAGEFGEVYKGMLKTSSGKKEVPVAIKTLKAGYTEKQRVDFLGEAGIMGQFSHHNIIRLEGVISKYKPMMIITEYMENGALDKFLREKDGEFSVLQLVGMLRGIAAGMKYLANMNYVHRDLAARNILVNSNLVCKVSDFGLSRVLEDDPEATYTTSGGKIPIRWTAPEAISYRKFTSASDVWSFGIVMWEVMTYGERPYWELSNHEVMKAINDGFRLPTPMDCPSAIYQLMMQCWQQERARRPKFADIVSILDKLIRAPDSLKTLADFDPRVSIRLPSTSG
- ASSAY COMMENT: Thermal shift assay
- Format: binding
- TEST CONTEXT: compound 10 µM; n = 3; read-out: ΔTm EPHA2
READOUT: ΔTm at 10 µM (°C)
State the answer as a number, implicitly in °C.

LINE NOTATION | ΔTm at 10 µM [°C]
CCN1CCN(C(=O)Cc2ccc(Nc3ncc(F)c(Nc4ccc(C(=O)Nc5ccccc5)cc4)n3)cc2)CC1 | 1.8
NC(=O)Cc1ccc(Nc2ncc(F)c(Nc3ccc(C(=O)Nc4ccccc4Cl)cc3)n2)cc1 | 0.8
O=C(Cc1ccc(Nc2ncc(F)c(Nc3ccc(C(=O)Nc4ccccc4Cl)cc3)n2)cc1)NCCN1CCOCC1 | 0.3

Here is another compound to look at.
[in] Sample CCN1CCN(C(=O)Cc2ccc(Nc3ncc(F)c(Nc4ccc(C(=O)O)cc4)n3)cc2)CC1 — what was its ΔTm at 10 µM?
[out] 1.6

###

- TESTED SYSTEM: CDK2 (Homo sapiens)
- Construct: purchased in-house thermal shift (DSF) kinase panel (SGC Frankfurt); Promega NanoBRET for AURKA/B/C
- ASSAY COMMENT: Thermal shift assay
- Assay type: binding
- TEST CONTEXT: compound 10 µM; n = 3; read-out: ΔTm CDK2
READOUT: ΔTm at 10 µM (°C)
State the answer as a number, implicitly in °C.

Recorded ΔTm at 10 µM, per entry:
COMPOUND | UNIT ABBREVIATION | ΔTm at 10 µM
O=C(Cc1ccc(Nc2ncc(F)c(Nc3ccc(C(=O)Nc4ccccc4Cl)cc3)n2)cc1)NCCN1CCOCC1 [ERJ2-04] | °C | 0.7
CCN1CCN(C(=O)Cc2ccc(Nc3ncc(F)c(Nc4ccc(C(=O)O)cc4)n3)cc2)CC1 [ERJ2-12] | °C | 0.4
CCN1CCN(C(=O)Cc2ccc(Nc3ncc(F)c(Nc4ccc(C(=O)Nc5ccccc5)cc4)n3)cc2)CC1 [ERJ2-11] | °C | 2.6

Here is another compound to look at.
[in] Sample NC(=O)Cc1ccc(Nc2ncc(F)c(Nc3ccc(C(=O)Nc4ccccc4Cl)cc3)n2)cc1 [ERJ2-06] — what was its ΔTm at 10 µM?
[out] 4.1

###

The entries below are paired with their reported ΔTm at 10 µM.
- TESTED SYSTEM: CHEK2 (Homo sapiens)
- Construct: purchased in-house thermal shift (DSF) kinase panel (SGC Frankfurt); Promega NanoBRET for AURKA/B/C
- Sequence (O96017 210-531): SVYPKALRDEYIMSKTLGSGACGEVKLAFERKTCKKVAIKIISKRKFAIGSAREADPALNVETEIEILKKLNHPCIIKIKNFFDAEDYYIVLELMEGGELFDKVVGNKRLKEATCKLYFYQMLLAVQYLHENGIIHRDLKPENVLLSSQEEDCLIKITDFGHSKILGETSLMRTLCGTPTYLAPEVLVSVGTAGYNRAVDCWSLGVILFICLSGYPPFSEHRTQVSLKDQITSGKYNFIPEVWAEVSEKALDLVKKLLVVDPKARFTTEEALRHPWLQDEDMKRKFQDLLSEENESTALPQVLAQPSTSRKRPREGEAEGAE
- ASSAY COMMENT: Thermal shift assay
- Format: binding
- TEST CONTEXT: compound 10 µM; n = 3; read-out: ΔTm CHEK2
State the answer as a number, implicitly in °C.

Recorded ΔTm at 10 µM, per entry:
LINE NOTATION | OBS VALUE
NC(=O)Cc1ccc(Nc2ncc(F)c(Nc3ccc(C(=O)Nc4ccccc4Cl)cc3)n2)cc1 | 3.5
CCN1CCN(C(=O)Cc2ccc(Nc3ncc(F)c(Nc4ccc(C(=O)O)cc4)n3)cc2)CC1 | 0.3
O=C(Cc1ccc(Nc2ncc(F)c(Nc3ccc(C(=O)Nc4ccccc4Cl)cc3)n2)cc1)NCCN1CCOCC1 | 1.2

Here is another compound to look at.
[in] Sample CCN1CCN(C(=O)Cc2ccc(Nc3ncc(F)c(Nc4ccc(C(=O)Nc5ccccc5)cc4)n3)cc2)CC1 — what was its ΔTm at 10 µM?
[out] 3.6

###

- TESTED SYSTEM: GAK (Homo sapiens, UniProt O14976)
- Construct: purchased in-house thermal shift (DSF) kinase panel (SGC Frankfurt); Promega NanoBRET for AURKA/B/C
- Sequence (O14976 14-351): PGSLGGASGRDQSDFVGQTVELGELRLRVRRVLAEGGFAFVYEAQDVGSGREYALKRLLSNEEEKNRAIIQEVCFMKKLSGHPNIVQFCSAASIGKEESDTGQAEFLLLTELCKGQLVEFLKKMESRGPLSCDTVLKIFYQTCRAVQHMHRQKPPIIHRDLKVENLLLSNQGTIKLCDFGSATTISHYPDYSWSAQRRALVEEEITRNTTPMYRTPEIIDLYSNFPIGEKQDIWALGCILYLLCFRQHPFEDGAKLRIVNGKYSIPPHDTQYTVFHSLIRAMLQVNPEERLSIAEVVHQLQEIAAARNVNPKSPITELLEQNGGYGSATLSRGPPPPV
- ASSAY COMMENT: Thermal shift assay
- Assay type: binding
- TEST CONTEXT: compound 10 µM; n = 3; read-out: ΔTm GAK
The entries below are paired with their reported ΔTm at 10 µM.
State the answer as a number, implicitly in °C.

[in] Sample CCN1CCN(C(=O)Cc2ccc(Nc3ncc(F)c(Nc4ccc(C(=O)Nc5ccccc5)cc4)n3)cc2)CC1 [ERJ2-11] — what was its ΔTm at 10 µM?
[out] 4.9

[in] Sample NC(=O)Cc1ccc(Nc2ncc(F)c(Nc3ccc(C(=O)Nc4ccccc4Cl)cc3)n2)cc1 [ERJ2-06] — what was its ΔTm at 10 µM?
[out] 5.1

[in] Sample CCN1CCN(C(=O)Cc2ccc(Nc3ncc(F)c(Nc4ccc(C(=O)O)cc4)n3)cc2)CC1 [ERJ2-12] — what was its ΔTm at 10 µM?
[out] 2.7

[in] Sample O=C(Cc1ccc(Nc2ncc(F)c(Nc3ccc(C(=O)Nc4ccccc4Cl)cc3)n2)cc1)NCCN1CCOCC1 [ERJ2-04] — what was its ΔTm at 10 µM?
[out] 4.5

These measurements were taken from paper PMC8776063.
